Numbers sourced from patent US20220041616A1.

# IC50 per record follows
Target of assay: ACC1 (Homo sapiens, UniProt Q13085)
Construct: purchased BPS bioscience
Assay comment: In vitro inhibition of ACC1 activity, ADP-Glo Kinase Analysis
Assay type: biochemical
Measurement context: 1 nM ACC1, 10 μM acetyl-CoA, 20 μM ATP

Some entries whose results are on file:
Entry COc1ccccc1[C@H](CN1C(=O)C2(CCN(C(N)=O)CC2)C(=O)c2c1sc(-c1ncco1)c2C)OC1CCOCC1 ; IC50 = < 10 nM

Noted for COC(=O)C(C)(C)N1CCC2(CC1)C(=O)c1c(sc(-c3ncco3)c1C)N(C[C@H](OC1CCOCC1)c1ccccc1OC)C2=O : its IC50 reads 10 to 100 nM

So, COc1ccccc1[C@H](CN1c2sc(-c3ncco3)c(C)c2C(=O)[C@]2(C[C@H](C(=O)NCCO)C2)C1=O)OC1CCOCC1 ? Its IC50 was < 10 nM

// IC50 value for COc1ccccc1[C@H](CN1c2sc(-c3ncco3)c(C)c2C(=O)[C@]2(C[C@H](C(=O)N(C)C)C2)C1=O)OC1CCOCC1 : < 10 nM

Looking up COc1ccccc1[C@H](CN1c2sc(-c3ncco3)c(C)c2C(=O)[C@]2(C[C@H](C(=O)OCC(=O)O)C2)C1=O)OC1CCOCC1 , I found its IC50 recorded as < 10 nM

Further cases:
Per the record, Cc1c(-c2ncco2)sc2c1C(=O)C1(CCC(C)(C(=O)O)C1)C(=O)N2CC(OC1CCOCC1)c1ccccc1 (mixture of isomers) has IC50 of 100 to 500 nM

IC50 measured on COc1ccccc1[C@H](CN1c2sc(-c3ncco3)c(C)c2C(=O)[C@]2(C[C@H](C(=O)O)C2)C1=O)OC1CCOCC1 = < 10 nM

Summary for this compound, COc1ccccc1[C@H](CN1C(=O)C2(CCN(S(=O)(=O)O)CC2)C(=O)c2c1sc(-c1ncco1)c2C)OC1CCOCC1 : IC50 is < 10 nM

The reported value for Cc1c(-c2ncco2)sc2c1C(=O)C1(CCC(C(=O)O)C1)C(=O)N2CC(OC1CCOCC1)c1ccccc1 (mixture of isomers) in terms of IC50 is 100 to 500 nM

Please fill in: IC50 reported for COc1ccccc1C(CN1C(=O)C2(CCC(C(=O)O)C2)C(=O)c2c1sc(-c1ncco1)c2C)OC1CCOCC1 (single isomer, unassigned) [Compound 5d] = < 10 nM

Sample Cc1c(-c2ncco2)sc2c1C(=O)C1(CCCC1)C(=O)N2CC(OC1CCOCC1)c1ccccc1 (centres unmarked) ; IC50 observed: > 500 nM
